Molecular target: T1, Processed stabilized hMPV PreF trimer (115BV) (human metapneumovirus, strain B2)
T1 construct: also called Processed hMPV PreF trimer; processed PreF
Assay: BLI, mAb on anti-human Fc sensor
Each entry below carries its reported Octet binding response.
Express your answer in nm, writing the number without its unit.

>>> readout_number("M4C03 (antibody, V domains shown, IgG) VH: EVQLVESGGTLVQPGGSLRLSCAASGFRFNAFSMNWVRQAPGKGLEWVSYIDSRSNIIYYADSVKGRFTISRDNAKTSLYLRMSSLRDEDTAVYYCAKALCVVNYDFWSGLLGCAMDVWGQGTTVTVSS VL: QSVLTQPPSVSGAPGQRVTISCTGTTSNIGAGFDVHWYQQVPGTAPKLLIYANTDRPSGVPDRFSASKSGTSASLAITGLQVEDEAHYYCQTYDTTLSGSTVFGGGTKLTVL")
0.0323
>>> readout_number("M3E04 (antibody, V domains shown, IgG) VH: EVQLVESGGGLVKPGGSLRLSCAGSGFTFSSYSMNWVRQAPGKGLEWVSSISASSSYIYYADSLKGRFTISRDNAKNSLYLQMNSLRAEDTAVYYCARANYGSGNYYNPKWFDPWGQGTLVTVSS VL: QSVLTQPPSVSGAPGQRVTISCTGSSSNIGAGYDVHWYQQFPGTAPKVLIYGNNNRPSGVPDRFSGSKSGTSASLAISGLQAEDEADYYCQSYDSSLSGSIFGGGTKLTVL")
0.0401
>>> readout_number("M2E04 (antibody, V domains shown, IgG) VH: QVQLQESGPGLVKPSEILSLTCTVSRFSINSGYYWGWIRQPPGKGLEWIGCISHAGSIYSNPSLESRVTLSLDTSKNQFSLKLTSVIAADTATYYCAASSNWHNALEYWGQGTLVVVSS VL: QSVLTQPPSASGTPGQTVTISCSGSRSNMGINWVYWYQQLPGTAPKLVIYRNSQRPSGVPDRFSGSQSGTSASLAISGLRSEDEAVYYCAVWDDSLDGRLFGGGTKLTVL")
0.199

With those in mind, consider the next binder.
If you can, please state the reported Octet binding response value of M2E01 (antibody, V domains shown, IgG) VH: QLQLQESGPGLVKPSETLSLTCTVSGGSISSSTYYWGWIRQPPGKGLEWIGTIYYSGSTDYNPSLKSRLTISVDTSKNQFSLRLRSVTAADTAVYYCARLVSPYDQFDYWGQGTLVTVSS VL: DIQMTQSPSSLSASVGDRVTITCRASQTITTYLSWYLQKPGKAPKLLIYAASSWQSGVPSRFSGSGSGTDFTLTISSLQPEDFATYYCQQSYSTPYTFGQGTKLEIK .
0.126
